- ASSAYED_TARGET: T1, LRP6-Fc (R&D Systems, catalog No: 1505-LR) (human, UniProt O75581 20-1370)
- T1 construct: also called 360 KD homodimer antigen LRP6-Fc
- T1 sequence (looked up): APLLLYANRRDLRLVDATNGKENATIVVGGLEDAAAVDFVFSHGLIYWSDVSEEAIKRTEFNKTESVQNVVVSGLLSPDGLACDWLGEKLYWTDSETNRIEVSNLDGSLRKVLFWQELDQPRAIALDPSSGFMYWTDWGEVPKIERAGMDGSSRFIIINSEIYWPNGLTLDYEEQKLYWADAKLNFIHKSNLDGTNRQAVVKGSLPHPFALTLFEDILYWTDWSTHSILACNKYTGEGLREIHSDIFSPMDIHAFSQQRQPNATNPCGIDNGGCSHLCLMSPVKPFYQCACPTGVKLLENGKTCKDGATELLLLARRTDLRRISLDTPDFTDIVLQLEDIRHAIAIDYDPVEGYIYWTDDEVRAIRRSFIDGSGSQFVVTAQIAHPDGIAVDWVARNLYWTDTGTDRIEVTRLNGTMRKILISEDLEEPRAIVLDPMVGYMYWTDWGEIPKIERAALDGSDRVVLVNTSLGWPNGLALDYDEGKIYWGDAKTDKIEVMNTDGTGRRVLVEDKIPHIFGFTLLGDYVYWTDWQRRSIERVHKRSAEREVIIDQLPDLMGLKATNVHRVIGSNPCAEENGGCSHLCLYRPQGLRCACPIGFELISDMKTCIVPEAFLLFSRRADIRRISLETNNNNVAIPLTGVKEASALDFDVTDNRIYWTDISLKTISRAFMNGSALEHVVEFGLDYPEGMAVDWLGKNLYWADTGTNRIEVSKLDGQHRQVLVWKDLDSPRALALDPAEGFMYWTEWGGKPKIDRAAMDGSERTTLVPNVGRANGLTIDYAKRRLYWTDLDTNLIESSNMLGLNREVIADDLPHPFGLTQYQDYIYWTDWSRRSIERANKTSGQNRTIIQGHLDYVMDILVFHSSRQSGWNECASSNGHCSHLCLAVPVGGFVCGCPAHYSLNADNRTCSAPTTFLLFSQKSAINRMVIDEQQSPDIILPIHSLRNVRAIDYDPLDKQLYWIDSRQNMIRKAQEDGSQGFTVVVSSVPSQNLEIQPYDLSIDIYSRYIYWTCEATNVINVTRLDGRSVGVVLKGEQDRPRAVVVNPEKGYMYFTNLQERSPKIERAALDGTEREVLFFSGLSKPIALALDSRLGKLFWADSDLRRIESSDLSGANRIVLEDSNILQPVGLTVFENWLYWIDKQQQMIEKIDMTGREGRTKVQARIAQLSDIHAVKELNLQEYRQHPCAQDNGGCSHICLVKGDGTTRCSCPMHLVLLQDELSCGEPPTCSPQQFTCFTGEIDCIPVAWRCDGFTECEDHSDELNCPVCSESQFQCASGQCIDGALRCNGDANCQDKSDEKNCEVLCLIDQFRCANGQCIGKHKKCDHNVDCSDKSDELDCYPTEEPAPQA
- ASSAY_NOTES: ELISA on plates coated with LRP6-Fc
MEASURE: EC50 (nM)
Quick note: give the figure in nM, leave out the unit.

>>> result_value("scFv08168-D8 (scFv, V domains shown) VH: QVQLVESGGGLVQPGGSLRLSCAASGFTFSDYVMNWVRQAPGKGLEWVSGISWSGVNTHYADSVKGRFTISRDNSKNTLYLQMNSLRAEDTAVYYCARLGATANNIRYKFMDVWGQGTLVTVSS VL: DIELTQPPSVSVAPGQTARISCSGDSLRNKVYWYQQKPGQAPVLLIYKNNRPSGIPERFSGSNSGNTATLTISGTQAEDEADYYCQSYDGQKSLVFGGGTKLTVL")
0.91
>>> result_value("scFv08168-D7 (scFv, V domains shown) VH: QVQLVESGGGLVQPGGSLRLSCAASGFTFSDYVMNWVRQAPGKGLEWVSGISWSGVNTHYADSVKGRFTISRDNSKNTLYLQMNSLRAEDTAVYYCARLGATANNIRYKFMDVWGQGTLVTVSS VL: DIELTQPPSVSVAPGQTARITCSGDSLRNKVYWYQQKPGQAPVLVIYKNNRPSGIPERFSGSNSGNTATLTISGTQAEDEADYYCQSYDGQKSLVFGGGTKLTVL")
1.15
>>> result_value("scFv08168-D5 (scFv) QVQLVESGGGLVQPGGSLRLSCAASGFTFSDYVMNWVRQAPGKGLEWVSGISWSGVNTYYADSVKGRFTISRDNSKNTLYLQMNSLRAEDTAVYYCARLGATANNIRYKFMDVWGQGTLVTVSSGGGGSGGGGSGGGGSDIELTQPPSVSVAPGQTARISCSGDSLRNKVYWYQQKPGQAPVLVIYKNNRPSGIPERFSGSNSGNTATLTISGTQAEDEADYYCQSYDGQKSLVFGGGTKLTVL")
1.22

QUERY: State the recorded EC50 for this entry: scFv08168-D2 (scFv) QVQLVESGGGLVQPGGSLRLSCAASGFTFSDYVFNWVRQAPGKGLEWVAGISWSGVNTHYADSVKGRFTISRDNSKNTLYLQMNSLRAEDTAVYYCARLGATANNIRYKFMDVWGQGTLVTVSSGGGGSGGGGSGGGGSDIELTQPPSVSVAPGQTARISCSGDSLRNKVYWYQQKPGQAPVLVIYKNNRPSGIPERFSGSNSGNTATLTISGTQAEDEADYYCQSYDGQKSLVFGGGTKLTVL
RESULT: 1.68

QUERY: Another binder to look at: scFv08168-D6 (scFv, V domains shown) VH: QVQLVESGGGLVQPGGSLRLSCAASGFTFSDYVMNWVRQAPGKGLEWISGISWSGVNTHYADSVKGRFTISRDNSKNTLYLQMNSLRAEDTAVYYCARLGATANNIRYKFMDVWGQGTLVTVSS VL: DIELTQPPSVSVAPGQTARISCSGDSLRNKVYWYQQKPGQAPVLVIYKNNRPSGIPERFSGSNSGNTATLTISGTQAEDEADYYCQSYDGQKSLVFGGGTKLTVL
RESULT: 1.24

QUERY: Another binder to look at: scFv08168-D4 (scFv) QVQLVESGGGLVQPGGSLRLSCAASGFTFSDYVMNWVRQAPGKGLEWVSSISWSGVNTHYADSVKGRFTISRDNSKNTLYLQMNSLRAEDTAVYYCARLGATANNIRYKFMDVWGQGTLVTVSSGGGGSGGGGSGGGGSDIELTQPPSVSVAPGQTARISCSGDSLRNKVYWYQQKPGQAPVLVIYKNNRPSGIPERFSGSNSGNTATLTISGTQAEDEADYYCQSYDGQKSLVFGGGTKLTVL
RESULT: 1.47

QUERY: Another binder to look at: scFv08168-D9 (scFv, V domains shown) VH: QVQLVESGGGLVQPGGSLRLSCAASGFTFSDYVMNWVRQAPGKGLEWVSGISWSGVNTHYADSVKGRFTISRDNSKNTLYLQMNSLRAEDTAVYYCARLGATANNIRYKFMDVWGQGTLVTVSS VL: DIELTQPPSVSVAPGQTARISCSGDSLRNKVYWYQQKPGQAPVLVIYKNNRPSGIPERFSVSNSGNTATLTISGTQAEDEADYYCQSYDGQKSLVFGGGTKLTVL
RESULT: 1.26

Cited source for all entries: patent US20130064823A1
